Answer each item with its documented pIC50.
As a rule, pIC50 stands for the negative log10 of the concentration, concentration in M.

Exercise: Fill in the recorded pIC50 for this molecule, with Replicase polyprotein 1ab (Severe acute respiratory syndrome coronavirus 2) as test system: `O=C(NCc1ccc(O)c(F)c1)N1CCC(CN2CCc3ccccc32)CC1`
Solution: 6.14

Exercise: Fill in the recorded pIC50 for this molecule, with Replicase polyprotein 1ab (Severe acute respiratory syndrome coronavirus 2) as test system: `C=CC(=O)N[C@H](CC(=C)C)C(=O)N1C[C@@H](C(=O)N[C@H](Cc2ccccc2)C(=O)NC)[C@H](c2cccc(C(F)(F)F)c2)C1`
Solution: 5.70

---

- experimental-target: Replicase polyprotein 1ab (Severe acute respiratory syndrome coronavirus 2, UniProt P0DTD1)
value-kind: IC50 (µM)
Express it in µM; write the number only.

Exercise: Bench note: what IC50 did `C[C@@H](OC(C)(C)C)[C@H](NC(=O)OCc1ccccc1)C(=O)N[C@@H](CC1CCCCC1)C(=O)NN(CCC(N)=O)C(=O)C(Cl)Cl` show?
Solution: 68

---

As a worked illustration, we turn to pIC50 data collected for Replicase polyprotein 1a (Severe acute respiratory syndrome-related coronavirus).
Kindly note that pIC50 refers to -log10 of the concentration in mol/L and answer with the value alone.

Exercise: Entry `C=CC(=O)N[C@H](CC(=C)C)C(=O)N1C[C@@H](C(=O)N[C@H](Cc2ccccc2)C(=O)NC)[C@H](c2cccc(C(F)(F)F)c2)C1` : reported pIC50 = ?
Solution: 5.46

Exercise: Form field: reported pIC50 of CC(C)(C)NC(=O)N[C@H](C(=O)N1C[C@H]2[C@@H]([C@H]1C(=O)NC(CC1CCC1)C(=O)C(N)=O)C2(C)C)C(C)(C)C (stereo not given in full)
Solution: 5.18

Exercise: Requested read-out: pIC50. Entry: CCCCC1CCC(COC(=O)N[C@@H](CC(C)C)C(=O)N[C@H](C=O)C[C@@H]2CCNC2=O)CC1 (stereo not given in full)
Solution: 6.05

Exercise: What pIC50 value was documented for this molecule, `CC(C)C[C@H](NC(=O)OCc1ccccc1)C(=O)N[C@H](C=O)C[C@@H]1CCNC1=O` ?
Solution: 7.15

Exercise: Return reported pIC50; argument: O=C[C@H](CC1CCNC1=O)NC(=O)[C@H](CC1CCCCC1)NC(=O)c1cc2ccccc2[nH]1 (stereo not given in full)
Solution: 7.28

---

- Test system: SARS-CoV-2
- method: microbe, parasite or virus in culture
- test-conditions: Severe acute respiratory syndrome coronavirus 2, B.1.1.7, Caco-2
value-kind: pEC50
The value called pEC50 is obtained by taking minus log10 of the concentration in mol/L.

Exercise: pEC50 lookup needed for CC(C)(C)NC(=O)N[C@H](C(=O)N1C[C@H]2[C@@H]([C@H]1C(=O)NC(CC1CCC1)C(=O)C(N)=O)C2(C)C)C(C)(C)C (stereo partly specified) [BOCEPREVIR] , thanks.
Solution: 5.53

Cited source for all entries: ChEMBL document CHEMBL5537111
